Target: 4-galactosyl-N-acetylglucosaminide 3-alpha-L-fucosyltransferase 9 (Homo sapiens)
Sequence (whole entry): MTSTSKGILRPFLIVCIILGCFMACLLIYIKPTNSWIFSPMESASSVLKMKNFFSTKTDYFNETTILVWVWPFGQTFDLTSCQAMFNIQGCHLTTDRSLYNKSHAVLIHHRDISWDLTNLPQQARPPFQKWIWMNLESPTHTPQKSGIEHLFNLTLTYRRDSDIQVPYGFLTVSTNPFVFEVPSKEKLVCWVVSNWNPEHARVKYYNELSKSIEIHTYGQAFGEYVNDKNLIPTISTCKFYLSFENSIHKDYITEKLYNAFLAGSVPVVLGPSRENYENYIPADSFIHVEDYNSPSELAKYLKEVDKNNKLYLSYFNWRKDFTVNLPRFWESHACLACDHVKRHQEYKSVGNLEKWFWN
Assay: Inhibition of human recombinant alpha1,3-fucosyltransferase 9 using GDP-[14C]-fucose preincubated for 30 mins by liquid scintillation counting
Set-up: concentration or dose not given beside the values
The source made the active and inactive calls. No cut-off for these calls is given here.
PARAMETER: inhibition

Example entries begin here.
Query (compound): CC(=O)Nc1nc2c(ncn2[C@@H]2O[C@H](COP(=O)(O)OP(=O)(O)OCc3cn([C@@H]4O[C@H](COC(C)=O)[C@H](OC(C)=O)[C@H](OC(C)=O)[C@H]4OC(C)=O)nn3)[C@@H](OC(C)=O)[C@H]2OC(C)=O)c(=O)[nH]1 ; field requested: inhibition
inactive

Now this one: O=c1[nH]cnc2c1ncn2[C@@H]1O[C@H](COP(=O)(O)OP(=O)(O)O)[C@@H](O)[C@H]1O
30%

Next entry: Nc1ncnc2c1ncn2[C@@H]1O[C@H](COP(=O)(O)OP(=O)(O)O)[C@@H](O)[C@H]1O
inactive

Please do the same for Nc1nc2c(ncn2[C@@H]2O[C@H](COP(=O)(O)OP(=O)(O)OP(=O)(O)O)[C@@H](O)[C@H]2O)c(=O)[nH]1 [GUANOSINE TRIPHOSPHATE] as well.
< 75%

---
Using the record for NC[C@@H]1O[C@H](OP(=O)(O)OP(=O)(O)OC[C@H]2O[C@@H](n3cnc4c(=O)[nH]c(N)nc43)[C@H](O)[C@@H]2O)[C@@H](O)[C@H](O)[C@@H]1O , report its inhibition.
78%

* * *

molecular target: 4-galactosyl-N-acetylglucosaminide 3-alpha-L-fucosyltransferase 9 (Homo sapiens) (UniProt Q9Y231); assay: Inhibition of human recombinant alpha1,3-fucosyltransferase 9 using GDP-[14C]-fucose preincubated for 30 mins by liquid scintillation counting; parameters: concentration or dose not given beside the values
Activity calls are given as the source filed them. The rule behind the calls is not given here.
PARAMETER: inhibition

Field request: inhibition | item: Nc1nc2c(ncn2[C@@H]2O[C@H](COP(=O)(O)OP(=O)(O)OCc3cn([C@@H]4O[C@H](CO)[C@@H](O[C@@H]5O[C@H](CO)[C@H](O)[C@H](O)[C@H]5O)[C@H](O)[C@H]4O)nn3)[C@@H](O)[C@H]2O)c(=O)[nH]1
45%

Would you kindly repeat that for Nc1nc2c(ncn2[C@H]2C[C@H](O)[C@@H](CO[P@](=O)(O)OP(=O)(O)O)O2)c(=O)[nH]1 ?
< 80%

Likewise for Nc1nc2c(ncn2[C@@H]2O[C@H](COP(=O)(O)O)[C@@H](O)[C@H]2O)c(=O)[nH]1 ?
inactive

Please give the result for C[C@@H](O)[C@H](O)[C@H](O)[C@@H](O)C=O too.
inactive
